pIC50: −log10 of the molar value.
VEGFR-2 (Homo sapiens, UniProt P35968) measurements of pIC50, listed per entry.
Sequence (P35968 20-1356): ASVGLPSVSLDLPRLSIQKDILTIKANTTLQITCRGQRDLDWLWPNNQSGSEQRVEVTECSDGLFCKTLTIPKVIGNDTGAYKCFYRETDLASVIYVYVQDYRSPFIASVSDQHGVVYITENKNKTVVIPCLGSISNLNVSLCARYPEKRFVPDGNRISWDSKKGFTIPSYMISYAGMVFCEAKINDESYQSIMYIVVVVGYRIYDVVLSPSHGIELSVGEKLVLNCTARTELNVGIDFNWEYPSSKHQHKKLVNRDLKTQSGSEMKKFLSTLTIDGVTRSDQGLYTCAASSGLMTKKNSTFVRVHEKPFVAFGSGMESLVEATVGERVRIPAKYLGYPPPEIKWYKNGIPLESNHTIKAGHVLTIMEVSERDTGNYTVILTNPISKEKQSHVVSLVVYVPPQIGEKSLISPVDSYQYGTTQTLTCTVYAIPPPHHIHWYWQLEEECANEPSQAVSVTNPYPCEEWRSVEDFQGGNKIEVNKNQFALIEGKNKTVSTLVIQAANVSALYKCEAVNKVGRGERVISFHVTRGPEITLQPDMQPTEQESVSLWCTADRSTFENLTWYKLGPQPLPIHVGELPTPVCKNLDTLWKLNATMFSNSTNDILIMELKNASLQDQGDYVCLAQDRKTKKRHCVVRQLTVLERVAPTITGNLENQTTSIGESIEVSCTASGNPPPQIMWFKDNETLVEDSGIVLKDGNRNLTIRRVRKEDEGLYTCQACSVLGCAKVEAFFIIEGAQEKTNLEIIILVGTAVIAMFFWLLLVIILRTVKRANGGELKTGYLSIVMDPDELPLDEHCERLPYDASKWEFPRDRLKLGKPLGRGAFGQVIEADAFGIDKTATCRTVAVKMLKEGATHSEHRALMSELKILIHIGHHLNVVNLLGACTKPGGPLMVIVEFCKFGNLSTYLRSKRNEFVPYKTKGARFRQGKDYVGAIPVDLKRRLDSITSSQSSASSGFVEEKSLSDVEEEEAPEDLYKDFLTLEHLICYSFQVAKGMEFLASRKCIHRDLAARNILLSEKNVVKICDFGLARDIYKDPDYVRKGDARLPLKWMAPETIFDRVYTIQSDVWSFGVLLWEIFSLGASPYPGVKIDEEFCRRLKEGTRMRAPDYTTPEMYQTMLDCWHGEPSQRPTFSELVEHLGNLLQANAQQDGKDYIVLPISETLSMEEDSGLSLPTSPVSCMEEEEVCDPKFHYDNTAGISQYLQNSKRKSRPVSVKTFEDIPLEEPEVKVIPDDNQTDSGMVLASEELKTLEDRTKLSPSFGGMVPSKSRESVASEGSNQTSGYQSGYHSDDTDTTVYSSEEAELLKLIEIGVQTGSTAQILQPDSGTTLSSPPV
measured_endpoint: pIC50

# line_notation, pIC50
data = [
    ("Cc1ccc(C=C2SC(=O)N(CC(=O)Nc3ccc(S(=O)(=O)NC(=S)Nc4ccccc4)cc3)C2=O)cc1", 6.96),
]

a = NS(=O)(=O)c1ccc(NC(=O)CN2C(=O)SC(=Cc3ccccc3)C2=O)cc1
b = O=C(CN1C(=O)SC(=Cc2ccccc2)C1=O)Nc1ccc(S(=O)(=O)NC(=S)Nc2ccccc2)cc1
c = O=C(CN1C(=O)CSC1=O)Nc1ccc(S(=O)(=O)NC(=S)Nc2ccccc2)cc1
q: Give the ascending ranking of the items by reported pIC50. I would appreciate it if you listed the labels in the requested order.
a: a, c, b

Data credit: paper PMC8880361
